Assay: refractive index (Na D-line) (dimensionless)
Conditions: 323.15 K; 100 kPa; Liquid; Standard Abbe refractometry

COMPOUND	refractive index
CCCCC(=O)[O-].CN(C)C(=[NH2+])N(C)C [1,1,3,3-tetramethylguanidinium pentanoate]	1.4664
CCCCCC(=O)[O-].CN(C)C(=[NH2+])N(C)C [1,1,3,3-tetramethylguanidinium hexanoate]	1.458
CCCC(=O)[O-].CN(C)C(=[NH2+])N(C)C [1,1,3,3-tetramethylguanidinium butanoate]	1.474
CCCCCCC(=O)[O-].CN(C)C(=[NH2+])N(C)C [1,1,3,3-tetramethylguanidinium heptanoate]	1.4689
CCCCCCCC(=O)[O-].CN(C)C(=[NH2+])N(C)C [1,1,3,3-tetramethylguanidinium octanoate]	1.4544
